biological target: Transforming acidic coiled-coil-containing protein 3 (Homo sapiens); experiment: inhibition of ARNT PAS-B/TACC3 complex formation – biochemical, AlphaScreen, cherry-picked samples, confirmation (AID 651703); details: AlphaScreen His-ARNT PAS-B / GST-TACC3 binding, luminescence;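 note: TACC3 partner is the GST-tagged E629A mutant dimer; hits lower the signal meaning they disrupt ARNT binding to TACC3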
assay.readout: AC50

Lookup: Query: AC50; subject: `COc1ccc(Cc2nnc(NN)[nH]c2=O)cc1OC`
Found: 6.72 µM

Lookup: Which AC50 value is on record for `CN(C)CCN(C(=O)c1ccc2c(c1)CCCC2)c1nc2cc3c(cc2s1)OCCO3` ?
Found: 19.9 µM

Lookup: What value of AC50 has been recorded for this entry: `Cn1c(-c2ccccc2)cnc1N`
Found: 37.5 µM

Lookup: Bench note: what AC50 did `O=C(CSc1ccc(-c2ccccn2)nn1)Nc1nccs1` show?
Found: 2.93 µM

Lookup: May I ask what AC50 has been recorded for `OCCCNc1nc(-c2ccccn2)nnc1-c1ccccc1` ?
Found: < 0.5 µM

Lookup: Name the reported AC50 value associated with the compound `CC1CCN(S(=O)(=O)c2ccc(C(=O)Nc3nnc(C4=COCCO4)o3)cc2)CC1`
Found: 1.21 µM

Lookup: Any idea what its AC50 is? The compound is `CCOc1ccc(C2=Nn3c(nnc3-c3ccccn3)SC2)cc1`
Found: 20.4 µM

Lookup: I am curious: what AC50 value has been reported for `COc1cc2c(c(OC)c1OC)-c1ccc(O)c(=O)cc1[C@@H](N)CC2` ?
Found: 29.7 µM

Lookup: Look up AC50 for this compound: `CC1(C)Cc2c(sc3nc4n(-c5ccccc5)c(=O)c(CCC(=O)O)nn4c(=O)c23)CO1`
Found: 19.2 µM

Lookup: What does the data say about its AC50? Entry: `O=S(=O)(N[C@@H]1CC[C@H](CCn2cc(-c3ccccn3)nn2)O[C@@H]1CO)c1cccc(F)c1`
Found: 29.1 µM

Lookup: Fill in the blank: the reported AC50 of CCCC(=O)NC(c1ccc(N(C)C)cc1)c1ccc2cccnc2c1O (stereo not drawn) is ____.
Found: 5.3 µM

Lookup: Look at this compound and give its reported AC50. `c1ccc(-c2nnc(-c3ccccn3)nc2NCc2cccnc2)cc1`
Found: < 0.5 µM

Lookup: Any idea what its AC50 is? The compound is `Clc1ccc(OCc2nc(-c3ccccn3)n[nH]2)cc1`
Found: 5.91 µM

Lookup: # input compound: `Oc1ccc(C2=Nn3c(nnc3-c3ccco3)SC2)cc1O` ; wanted: its AC50
Found: 6.22 µM

Lookup: For the compound O=C(CN1C(=O)C2CCCCC2C1=O)Nc1nc(-c2ccccn2)cs1 (stereo not drawn) , what AC50 is on record?
Found: 5.15 µM

Lookup: Return reported AC50; argument: `O=C(CSc1ccc(-c2ccccn2)nn1)Nc1cccc(F)c1`
Found: 1.16 µM

Lookup: Please report the recorded AC50 for O=C(O)C1Nc2c(O)cc(Cl)c([N+](=O)[O-])c2C2C=CCC12 (stereo not drawn) .
Found: 28.1 µM

Lookup: Would you mind telling me what AC50 value was observed for `c1ccc(-c2nnc(-c3ccccn3)nc2NCC2CC2)cc1` ?
Found: < 0.5 µM

Lookup: Value lookup for AC50; key = `O=C(CN1C(=O)COc2ccccc21)Nc1ccc(F)cc1`
Found: 3.96 µM

Lookup: Item `Cc1ccc(-c2cnc(N)n2C)cc1C` has what recorded AC50?
Found: 41.1 µM

Lookup: For the compound shown here, `O=C(NCCCn1ccnc1)c1ccc2nccnc2c1` , give the reported AC50.
Found: 67.5 µM

Lookup: Can you share its AC50? I mean this compound: `COc1cc(OC)c(C(=O)OCC(=O)Nc2nnc(-c3ccccc3)o2)cc1OC`
Found: 19 µM

Lookup: Look up AC50: `CN1CC[C@@]2(C)c3cc(O)ccc3N(C)[C@@H]12`
Found: 60.1 µM

----------
molecular target: Transforming acidic coiled-coil-containing protein 3 (Homo sapiens); experiment: inhibition of ARNT PAS-B/TACC3 complex formation – biochemical, AlphaScreen, cherry-picked samples, confirmation (AID 651703); conditions: AlphaScreen His-ARNT PAS-B / GST-TACC3 binding, luminescence;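 note: TACC3 partner is the GST-tagged E629A mutant dimer; hits lower the signal meaning they disrupt ARNT binding to TACC3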
I'd be grateful if you could share measured AC50 for these entries.

Lookup: Reported AC50 for `COc1ccc(NC(=O)N[C@H]2CC[C@@H](CCn3cc(-c4ccccn4)nn3)O[C@@H]2CO)cc1` : what is it?
Found: 13.3 µM

Lookup: For the compound shown here, `c1ccc(CNc2nc(-c3ccccn3)nc3ccccc23)cc1` , give the reported AC50.
Found: 11.4 µM

Lookup: I'd like to know its AC50. The compound in question is `Cc1ccsc1C(=O)Nc1nnc(-c2ccco2)o1`
Found: 9.04 µM

Lookup: Which AC50 is reported for this compound? `Cc1ccc(-n2c(SCC(N)=O)nnc2-c2ccccn2)cc1`
Found: 34.7 µM

Lookup: Reported AC50, compound COc1ccccc1C(CCNCc1ccc(N(C)C)cc1)c1ccc(OC(C)C)cc1 (configuration not stated) : ____
Found: 7.83 µM

Lookup: Request the reported AC50 associated with `O=C(Cn1cnc([N+](=O)[O-])n1)N/N=C/c1ccc(O)cc1O`
Found: 4.97 µM

Lookup: Fill in the blank: the reported AC50 of `CCSc1nnc(NC(=O)c2ccccn2)s1` is ____.
Found: 3.61 µM

Lookup: Fill blank: measured AC50 of the compound `Cc1cccc(C(=O)Nc2nnc(-c3ccco3)o2)c1` is ____.
Found: 5.86 µM

Lookup: GET /values?readout=AC50&item= CC(Oc1cccc(Cl)c1)C(=O)Nc1nc(-c2ccccn2)cs1 (configuration not stated)
Found: 18 µM

Lookup: Tell me the measured AC50 of `C=CCSc1nnc(-c2cccc3ccccc23)o1` , please.
Found: 5.8 µM

Lookup: Please look up its AC50: `COc1ccccc1NC(=O)CSc1ccc(-c2ccccn2)nn1`
Found: 3.1 µM

Lookup: Entry `CCOC(=O)c1c(OCC)[nH]c2c1cc(O)c1ccccc12` has what AC50?
Found: 56.9 µM

Lookup: Consider the compound NC1=NN=C(N2N=C(c3ccco3)CC2(O)C(F)(F)F)n2ncnc2C1 (configuration not stated) and give its measured AC50.
Found: 12 µM

Lookup: Value lookup for AC50; key = `C/C=C/c1ccc([C@H]2[C@@H](CO)N(Cc3ccccn3)[C@H]2CNC(=O)CC)cc1`
Found: 66.7 µM

Lookup: What does the record list as AC50 for `O=C(N[C@H]1CC[C@@H](CCn2cc(-c3ccccn3)nn2)O[C@H]1CO)c1ccc(F)cc1` ?
Found: 12.6 µM

Lookup: Recorded AC50 for `C[C@@H](Nc1nc(-c2ccccn2)nnc1-c1ccccc1)c1ccccc1` , please?
Found: 0.77 µM

Lookup: Report AC50 for `O=C(CSc1nnc(-c2ccccn2)o1)Nc1ccccc1Cl` please.
Found: 9.92 µM

Lookup: What does the record list as AC50 for `Cc1cc(C)c(NC(=O)CSc2nnc(-c3ccccn3)n2N)c(Cl)c1` ?
Found: 37.1 µM

Lookup: Fill in the blank: the reported AC50 of `Cc1ccc(S(=O)(=O)N2CCOCC2)cc1NC(=O)CNCc1ccccn1` is ____.
Found: 6.07 µM

Lookup: Endpoint output: AC50 of COc1cc(C2C(C#N)=C(N)Oc3n[nH]c(-c4ccccn4)c32)cc(OC)c1OC (configuration not stated) . Value?
Found: 19.7 µM

Lookup: Fill blank: measured AC50 of the compound `O=C(COc1ccc([N+](=O)[O-])cc1)Nc1nc(-c2ccccn2)cs1` is ____.
Found: 6.57 µM

Lookup: Which value of AC50 has been reported for `CC(C)(C)C1=CC(=Nc2ccccc2N)C=C(C(C)(C)C)C1=O` in the records?
Found: 1.47 µM

----------
Please respond with reported AC50 for every item in the list.
molecular target: Transforming acidic coiled-coil-containing protein 3 (Homo sapiens); experiment: inhibition of ARNT PAS-B/TACC3 complex formation – biochemical, AlphaScreen, cherry-picked samples, confirmation (AID 651703); settings: AlphaScreen His-ARNT PAS-B / GST-TACC3 binding, luminescence;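 note: TACC3 partner is the GST-tagged E629A mutant dimer; hits lower the signal meaning they disrupt ARNT binding to TACC3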

Lookup: Consider the compound shown here: `O=C(N/N=C/c1c(O)n(CCC2=CCCCC2)c(=O)[nH]c1=O)c1ccccc1` What is its recorded AC50?
Found: 19.5 µM

Lookup: Any idea what AC50 was measured for `Cc1ccc(NC(=O)CSc2n[nH]c(-c3ccccn3)n2)cc1` ?
Found: 2.26 µM

Lookup: For the compound shown here, `Brc1ccc(OCc2nc(-c3ccccn3)n[nH]2)cc1` , give the reported AC50.
Found: 3.6 µM

Lookup: Entry CCN(C(=O)COc1cccc2cccnc12)C1CCS(=O)(=O)C1 (stereo not drawn) has what AC50?
Found: 45.1 µM

Lookup: What does the record list as AC50 for `NC1=CC(=O)C(=O)c2ccccc21` ?
Found: 38.9 µM

Lookup: Recorded AC50 of `Cc1cc(=O)[nH]c(-n2ncc(C#N)c2N)n1` , please.
Found: 59.7 µM

Lookup: I have this compound here, `COc1cc(-c2nnc(NC(=O)CS(=O)(=O)c3ccc(F)cc3)o2)cc(OC)c1OC` , and I need its recorded AC50.
Found: 24.3 µM

Lookup: Item `c1ccc(-c2nnc(-c3ccccn3)nc2NCC2CCCCC2)cc1` has what recorded AC50?
Found: 0.994 µM

Lookup: What does the record list as AC50 for `O=C(NN=Cc1c(O)ccc2ccccc12)c1ccncc1` ?
Found: 9.94 µM

Lookup: Need AC50, item `Cc1ccc(NC(=O)CNCc2ccccn2)cc1S(=O)(=O)N(C)C`
Found: 8.68 µM

Lookup: Request the reported AC50 associated with Oc1c(C(c2ccc(Cl)cc2)N2CCCC2)cc(Cl)c2cccnc12 (stereo not drawn)
Found: 1.36 µM

Lookup: Which value of AC50 has been reported for `CCc1ccc(NC(=O)CSc2ccc(-c3ccccn3)nn2)cc1` in the records?
Found: 4.37 µM

Lookup: Bench note: what AC50 did O=C(CSc1ccc2nnc(-c3ccccn3)n2n1)NCC1CCCO1 (stereo not drawn) show?
Found: 49.7 µM

Lookup: Find the recorded AC50 belonging to `O=S(=O)(NC1CCN(Cc2ccc(OCCO)cc2)CC1)c1cccc2cccnc12` and report it.
Found: 15.2 µM

Lookup: Suppose we examine the compound `COc1ccc(S(=O)(=O)n2oc(=O)cc2-c2ccccc2)cc1OC` ; what AC50 value has been reported?
Found: 2.6 µM

Lookup: Param item = `OCCN1CCN(Cc2cc(Cl)c3cccnc3c2O)CC1` ; retrieve measured AC50.
Found: 1.34 µM

Lookup: Bench note: what AC50 did `Cc1ccc(S(=O)(=O)n2oc(=O)c(C3CCCCC3)c2N)cc1` show?
Found: 16 µM

Lookup: I have this compound here, `Cc1ncc(CO)c(/C=N/NC(=O)c2cc(Br)ccc2O)c1O` , and I need its recorded AC50.
Found: 8.86 µM

Lookup: Recorded AC50 of CCC(=O)NC(C)c1cc(Cl)c2cccnc2c1O (stereo not drawn) , please.
Found: 4.72 µM

Lookup: Name the recorded AC50 for `O=C(N/N=C/c1cc([N+](=O)[O-])ccc1O)c1ccncc1` .
Found: 1.01 µM

Lookup: For the compound `O=S(=O)(c1ccc(Br)cc1)c1nc(-c2ccco2)oc1NCCCn1ccnc1` , what AC50 is on record?
Found: 33.9 µM

Lookup: Sample `O=c1cc(CSc2ccc(Cl)cc2)nc(-c2ccccn2)[nH]1` — what was its AC50?
Found: 3.69 µM

Lookup: Given the compound `Cc1ccccc1Nc1nnc(SCC(=O)NC(=O)NCc2ccco2)s1` , what is its reported AC50?
Found: 71.2 µM
